# ASSAY_SYSTEM: MDM2 (Homo sapiens)
# Sequence (Q00987 1-125): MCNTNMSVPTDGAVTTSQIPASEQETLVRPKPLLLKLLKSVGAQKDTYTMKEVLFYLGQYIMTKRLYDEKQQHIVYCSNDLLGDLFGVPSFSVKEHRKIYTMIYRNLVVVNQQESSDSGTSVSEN
# METHOD: Competitive fluorescence polarization assay for MDM2
# Assay type: binding
# RECORDED_CONDITIONS: competitive FP assay, MDM2; read-out: Ki (MDM2)
RECORDED_ENDPOINT: Ki

CCCC[C@H](NC(=O)[C@H](C)NC(=O)[C@H](C)NC(=O)[C@]1(C)CCCC=CCCCCCC[C@@](C)(NC(=O)[C@H](Cc2ccccc2)NC(=O)[C@@H](NC(=O)[C@H](CC(C)C)NC(C)=O)[C@@H](C)O)C(=O)N[C@@H](C)C(=O)N[C@@H](Cc2ccc(O)cc2)C(=O)N[C@@H](Cc2c[nH]c3ccccc23)C(=O)NC(C)(C)C(=O)N[C@@H](CCC(N)=O)C(=O)N[C@@H](CC(C)C)C(=O)N1)C(=O)N[C@@H](C)C(N)=O (single isomer, unassigned) yielded Ki of < 10 nM

We next turn to a different molecule, shown below.
Value of measured Ki for the entry CC[C@H](C)[C@H](NC(=O)[C@H](Cc1c[nH]cn1)NC(=O)[C@H](C)NC(=O)[C@]1(C)CCCC=CCCCCCC[C@@](C)(NC(=O)[C@H](Cc2ccccc2)NC(=O)[C@@H](NC(=O)[C@H](CC(C)C)NC(C)=O)[C@@H](C)O)C(=O)N[C@@H](CCC(=O)O)C(=O)N[C@@H](Cc2c[nH]cn2)C(=O)N[C@@H](Cc2c[nH]c3ccccc23)C(=O)N[C@@H](C)C(=O)N[C@@H](CCC(N)=O)C(=O)N[C@@H](CC(C)C)C(=O)N1)C(=O)N[C@H](C)C(N)=O (single isomer, unassigned) : < 10 nM

FYI, the data here is from patent US8927500B2.
